Organism: Rattus norvegicus
protocol: Displacement of [35S]TBPS from GABAA receptor in Wistar rat cerebral cortex membranes at 10 uM after 3 hrs by scintillation counting method
details: Membrane
Lab note: anything with inhibition at or over 70% counts as Fulfilled; the rest go in Not fulfilled.

# molecule, qualitative_label
data = [
    ("C[C@@H](c1cccc([C@H](C)C2CC2)c1O)C1CC1", "Fulfilled"),
]

Threshold query (inhibition >= 70%) on CC(C)c1cccc(C(C)C2CC2)c1O (racemic)
Not fulfilled

Lookup `CC[C@H](C)c1cccc([C@@H](C)C2CC2)c1O`
Not fulfilled

Then this molecule: `CC[C@@H](C)c1cccc([C@H](C)CC)c1O`
Not fulfilled

Lookup CC(C)c1cccc([C@H](C)C2CC2)c1O [CIPEPOFOL]
Fulfilled

What would you report for CCC(C)c1cccc(C(C)C2CC2)c1O (racemic) ?
Fulfilled

Repeat for the following molecule: `CC[C@@H](C)c1cccc([C@@H](C)C2CC2)c1O`
Not fulfilled

Another molecule to look at: CC(C)c1cccc(C(C)C)c1O [PROPOFOL]
Not fulfilled

Also check `CC[C@H](C)c1cccc([C@H](C)C2CC2)c1O`
Not fulfilled

Again, but for `C[C@H](c1cccc([C@H](C)C2CC2)c1O)C1CC1`
Fulfilled

And the next one, `CC[C@@H](C)c1cccc([C@H](C)C2CC2)c1O` ?
Fulfilled

Please give the result for `C[C@H](c1cccc([C@@H](C)C2CC2)c1O)C1CC1` too.
Not fulfilled

Moving on to CC(c1cccc(C(C)C2CC2)c1O)C1CC1 (racemic)
Fulfilled

How about `CC(C)c1cccc([C@@H](C)C2CC2)c1O` ?
Not fulfilled

---

Test system: Rattus norvegicus
protocol: Cmax in Sprague-Dawley rat at 1 mg/kg, iv by LC-MS/MS analysis
Assay type: ADME, organism-based
Design: dose 1 mg/kg, route intravenous
details: in vivo
measured_quantity: Cmax (ng/mL)
One number for each entry, in ng/mL.

# smiles_input, unit_symbol, Cmax
records = [
    ("CC(C)c1cccc([C@H](C)C2CC2)c1O", "ng/mL", 834),
    ("CC[C@@H](C)c1cccc([C@H](C)C2CC2)c1O", "ng/mL", 575),
    ("C[C@@H](c1cccc([C@H](C)C2CC2)c1O)C1CC1", "ng/mL", 713),
]

What Cmax value was documented for this molecule, `CC(C)c1cccc(C(C)C)c1O` ?
384

---

Give AUCt for every item shown.
Species on record: Rattus norvegicus
details: in vivo, iv, 1 mg/kg
One number for each entry, in µg·h/mL.

# smiles_input, unit_symbol, AUCt
rows = [
    ("CC[C@@H](C)c1cccc([C@H](C)C2CC2)c1O", "µg·h/mL", 0.0781),
]

// for each compound below, give its AUCt
1. CC(C)c1cccc(C(C)C)c1O
2. CC(C)c1cccc([C@H](C)C2CC2)c1O
3. C[C@@H](c1cccc([C@H](C)C2CC2)c1O)C1CC1

[0.0769, 0.164, 0.17]
